Molecular target: purified human IDO (Homo sapiens, UniProt P14902)
Sequence (P14902 whole entry): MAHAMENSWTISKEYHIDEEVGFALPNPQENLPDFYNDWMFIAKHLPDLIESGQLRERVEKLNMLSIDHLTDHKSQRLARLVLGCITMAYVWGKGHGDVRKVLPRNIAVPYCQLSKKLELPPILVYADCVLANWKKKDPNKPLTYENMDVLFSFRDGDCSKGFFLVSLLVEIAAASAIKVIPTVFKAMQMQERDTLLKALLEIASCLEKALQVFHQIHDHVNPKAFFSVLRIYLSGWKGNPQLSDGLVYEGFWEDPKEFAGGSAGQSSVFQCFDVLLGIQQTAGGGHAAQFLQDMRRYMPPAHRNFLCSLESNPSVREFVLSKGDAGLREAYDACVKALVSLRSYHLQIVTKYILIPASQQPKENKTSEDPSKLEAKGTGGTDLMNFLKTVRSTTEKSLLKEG
RESULT TYPE: Ki (µM)
Give the number; µM is assumed, so skip it.

Field: Ki (purified human IDO (Homo sapiens, UniProt P14902)). Entry: O=C1c2cccc(O)c2C(=O)c2c(O)cc(CO)cc21 [Compound 1, aloe emodin]
85.3

Origin of measurements: paper PMC5307915
